- Test system: K-562 leukemia
- PROCEDURE_SUMMARY: NCI-60 one-dose screen, 48 h
- EXPERIMENTAL_CONTEXT: 10 µM
The panel holds about 83,000 compounds, 20% with a hit somewhere; the sample as a whole holds those more often. Activity calls are given as the source filed them. Rule for the calls: active = growth percent below 10; inactive = the rest.
Result category, one only: active, inactive

q: Please let me know the test result on file for NC(=O)SCC(=O)NNc1ccccc1 .
a: inactive

q: Please let me know the test result on file for O=C1NC(=O)c2cc([N+](=O)[O-])ccc21 .
a: inactive

q: Please let me know the test result on file for CCN(CC)c1ccc(NC(C(=O)c2ccccc2)c2ccccc2)cc1 (centres undefined) .
a: inactive

q: Please let me know the test result on file for OC(CN1CCCC2CCCCC21)c1cc2ccccc2c2ccccc12 (centres undefined) .
a: active

Cited source: PubChem BioAssay (NCI)
